- target_or_test_system: porcine kidney DAAO (Sus scrofa (Pig), UniProt P00371)
- Sequence (P00371 whole entry): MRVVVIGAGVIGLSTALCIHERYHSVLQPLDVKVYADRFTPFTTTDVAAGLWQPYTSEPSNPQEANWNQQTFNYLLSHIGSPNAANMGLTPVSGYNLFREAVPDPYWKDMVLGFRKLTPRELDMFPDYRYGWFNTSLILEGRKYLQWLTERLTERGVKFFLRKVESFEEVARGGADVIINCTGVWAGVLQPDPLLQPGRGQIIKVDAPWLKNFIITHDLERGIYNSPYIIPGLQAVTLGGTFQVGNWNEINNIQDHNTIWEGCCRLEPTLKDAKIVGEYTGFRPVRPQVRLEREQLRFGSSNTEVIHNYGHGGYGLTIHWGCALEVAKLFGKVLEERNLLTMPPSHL
- protocol_details: DAAO enzymatic assay
- Format: biochemical
- test_settings: porcine kidney DAAO, D-alanine substrate, HPPA fluorescence, pH 8.3, 37° C.
List of pIC50 values.
Quick note: pIC50 values are minus log10 of concentrations in mol/L.

Known results for compounds:
COc1cc(OC[C@@H]2CNCC[C@H]2c2ccc(F)cc2)ccc1O [PM-BRL 36610A]    5.46
CCN(CC)Cc1cc(Nc2ccnc3cc(Cl)ccc23)ccc1O [Amodiaquin, reference compound]    4.01
Clc1ccc2c(c1)N=C(N1CCNCC1)c1ccccc1N2 [N-Desmethylclozapine]    3.99
COc1ccc2nc([S@@+]([O-])Cc3ncc(C)c(OC)c3C)[nH]c2c1 [Esomeprazole, reference compound]    3.97

Now for a further compound.
For this compound ( COc1ccc(OC[C@@H]2CNCC[C@H]2c2ccc(F)cc2)cc1O [PM-BRL 36583A] ), measured pIC50 is 5.44
